Entry source: PubChem BioAssay (NCI)

Test system: CCRF-CEM leukemia
PROTOCOL_SUMMARY: NCI-60 one-dose screen, 48 h (100 = growth as untreated, 0 = no growth, -100 = all killed)
RUN_CONDITIONS: 10 µM unless noted
The panel holds about 83,000 compounds, 20% with a hit somewhere; the sample as a whole holds those more often.
Rule: growth under 20% gives not met, otherwise met.

Record excerpt, results attached:
MOLECULE	ASSIGNED_CLASS
COc1cccc(-c2nn(-c3ccccc3)cc2-c2ccnc(NCCNS(=O)(=O)c3ccc(C(F)(F)F)cc3)c2)c1	not met
Cn1cc(-c2csc(-c3c[nH]c4ccc(F)cc34)n2)c2cccnc21	met
COc1ccc(C(=O)/C=C/c2cc(-c3cc(OC)c(OC)c(OC)c3)n[nH]2)cc1OC	not met
Cc1ccc2c(c1)c(-c1nc(-c3c[nH]c4ncccc34)cs1)cn2C	met
O=C1C(Cl)=C(Nc2ccc(S(=O)(=O)c3ccc(NC4=C(Cl)C(=O)c5ccccc5C4=O)cc3)cc2)C(=O)c2ccccc21	met

**Q:** Decide: growth of N#CC1=C(N)Oc2ccc3ccccc3c2C1c1ccccc1Cl (centres undefined) >= 20%?
**A:** met

**Q:** Decide: growth of CC(=O)O[C@@H]1CCN2C(=O)N(C)c3ccccc3[C@@H]2C1 >= 20%?
**A:** met

**Q:** Decide: growth of COc1cccc2c1C(=O)c1c(O)c3c(c(O)c1C2=O)C[C@@](O)(C(=O)CO)C[C@@H]3OC1C[C@H](N)[C@H](O)[C@H](C)O1 (some centres undefined) >= 20%?
**A:** not met

**Q:** Decide: growth of c1cc(N2CCCC2)c2nc(-c3[nH]ncc3Nc3ncnc4[nH]ccc34)[nH]c2c1 >= 20%?
**A:** not met
